Values from ChEMBL document CHEMBL5325423

Entries annotated with measured pIC50
- assaySystem: Mitogen-activated protein kinase kinase kinase kinase 1 (Homo sapiens, UniProt Q92918)
- Sequence (Q92918 whole entry): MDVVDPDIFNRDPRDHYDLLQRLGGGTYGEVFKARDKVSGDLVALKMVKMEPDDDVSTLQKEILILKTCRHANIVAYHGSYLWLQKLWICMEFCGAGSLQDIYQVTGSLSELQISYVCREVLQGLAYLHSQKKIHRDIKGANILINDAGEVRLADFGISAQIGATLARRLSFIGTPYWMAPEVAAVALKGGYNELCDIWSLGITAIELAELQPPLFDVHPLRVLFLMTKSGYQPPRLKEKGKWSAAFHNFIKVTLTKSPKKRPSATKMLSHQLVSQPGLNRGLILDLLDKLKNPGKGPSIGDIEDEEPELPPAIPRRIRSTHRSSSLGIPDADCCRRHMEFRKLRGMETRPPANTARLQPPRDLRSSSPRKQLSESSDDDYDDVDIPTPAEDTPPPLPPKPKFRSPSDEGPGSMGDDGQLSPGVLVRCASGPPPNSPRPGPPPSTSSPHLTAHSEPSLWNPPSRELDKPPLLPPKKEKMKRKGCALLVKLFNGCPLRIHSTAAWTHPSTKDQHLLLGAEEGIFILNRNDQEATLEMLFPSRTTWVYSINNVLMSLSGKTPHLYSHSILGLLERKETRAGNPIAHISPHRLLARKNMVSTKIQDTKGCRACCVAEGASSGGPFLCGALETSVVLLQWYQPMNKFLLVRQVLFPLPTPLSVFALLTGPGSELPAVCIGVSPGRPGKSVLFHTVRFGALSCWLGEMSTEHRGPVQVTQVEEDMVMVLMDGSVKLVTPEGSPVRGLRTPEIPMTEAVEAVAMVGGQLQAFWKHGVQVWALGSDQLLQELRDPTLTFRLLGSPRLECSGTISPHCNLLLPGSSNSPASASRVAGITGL
- assayName: Inhibition of human HPK1 using myelin basic protein and [gamma33P]ATP as substrate incubated for 40 mins in presence of Mg/ATP by radiometric scintillation counting analysis
Schema: pIC50 number; meaning minus log10 of the concentration expressed in molar units.

COc1cc2c(cc1Nc1nc(Nc3ccccc3S(=O)(=O)N3CCCC3)c3c(-c4cccnc4)c[nH]c3n1)CN(C)CC2    8.35

Query block: Test system Mitogen-activated protein kinase kinase kinase kinase 1 (Homo sapiens, UniProt Q92918); read-out pIC50; what value for COc1cc2c(cc1Nc1nc(Nc3ccccc3S(=O)(=O)N3CCCC3)c3cc[nH]c3n1)CN(C)CC2 ?
Result block: 8.82

Query block: Which pIC50 is reported with Mitogen-activated protein kinase kinase kinase kinase 1 (Homo sapiens, UniProt Q92918) for this entry: COc1cc2c(cc1Nc1nc(Nc3ccccc3C(C)(C)C)c3cc[nH]c3n1)CN(C)CC2 ?
Result block: 6.41

Query block: Fill in the recorded pIC50 for this compound, with Mitogen-activated protein kinase kinase kinase kinase 1 (Homo sapiens, UniProt Q92918) as test system: COc1cc2c(cc1Nc1nc(Nc3ccccc3S(=O)(=O)N(C)C)c3c(-c4cnn(C)c4)c[nH]c3n1)CN(C)CC2
Result block: 8.05

Query block: For Mitogen-activated protein kinase kinase kinase kinase 1 (Homo sapiens, UniProt Q92918), provide pIC50 of COc1cc2c(cc1Nc1nc(Nc3ccccc3OC(C)C)c3cc[nH]c3n1)CN(C)CC2 please.
Result block: 7.08

Query block: State its pIC50 on Mitogen-activated protein kinase kinase kinase kinase 1 (Homo sapiens, UniProt Q92918): CN(C)S(=O)(=O)c1ccccc1Nc1nc(Nc2ccc(N3CCOCC3)cc2)nc2[nH]cc(-c3cccnc3)c12
Result block: 8.30

Query block: Under Mitogen-activated protein kinase kinase kinase kinase 1 (Homo sapiens, UniProt Q92918): pIC50 value of COc1cc2c(cc1Nc1nc(Nc3ccccc3S(=O)(=O)N3CC(C)(C)C3)c3cc[nH]c3n1)CN(C)CC2 ?
Result block: 7.90

Query block: GET /values?readout=pIC50&system=Mitogen-activated protein kinase kinase kinase kinase 1 (Homo sapiens, UniProt Q92918)&item= COc1cc2c(cc1Nc1nc(Nc3ccccc3S(=O)(=O)N(C)C)c3c(-c4c(C)noc4C)c[nH]c3n1)CN(C)CC2
Result block: 7.38

Query block: I'm curious: which pIC50 was measured for COc1cc2c(cc1Nc1nc(Nc3ccccc3S(=O)(=O)N(C)C)c3c(-c4ccn(C)c(=O)c4)c[nH]c3n1)CN(C)CC2 tested on Mitogen-activated protein kinase kinase kinase kinase 1 (Homo sapiens, UniProt Q92918)?
Result block: 8.05

Query block: Provide the documented pIC50 with Mitogen-activated protein kinase kinase kinase kinase 1 (Homo sapiens, UniProt Q92918) as the system for COc1cc2c(cc1Nc1nc(Nc3ccccc3S(=O)(=O)N(C)C)c3c(-c4cn[nH]c4)c[nH]c3n1)CN(C)CC2
Result block: 8.52

Query block: Which pIC50 is reported with Mitogen-activated protein kinase kinase kinase kinase 1 (Homo sapiens, UniProt Q92918) for this entry: COc1cc2c(cc1Nc1nc(Nc3ccccc3Cl)c3cc[nH]c3n1)CN(C)CC2 ?
Result block: 6.20
